Molecular target: Nonstructural protein 3 (Zika virus)
Experiment: Functional biochemical assay to identify treatments for viral infectious disease that targets Zika NS2B-NS3 protease. Utilizing a direct enzyme activity measurement method, reading the fluorescence intensity is used to characterize the relative potency of inhibitors as IC50.
Set-up: species or system PRVABC59
pIC50: −log10 of the molar value.
Can you tell me pIC50 for the items I'm about to list?

Some compounds with known pIC50 results, for comparison:
• NCc1cccc(NC(=O)c2cc(C3CCCCC3)nc3ccc(F)cc23)c1 = < 4.00
• Cc1c(C(=O)Nc2cc(C(=O)N[C@H]3CCOC3)ccn2)cc(C2CC2)n1C = < 4.60
• CC(=O)N1CCCc2cc(NC(=O)c3cc(C4CC4)n(C)c3C)ccc21 = < 4.60
• Cc1onc(C(=O)Nc2cccc(CN)c2)c1COc1cccc(F)c1 = < 4.00
• O=C(Cn1ccnc(N2CC[C@H](CO)C2)c1=O)NCc1ccsc1 = < 4.00
• CCc1n[nH]cc1-c1cccc([C@H](NC(=O)OCc2ccccc2)C(=O)Nc2cccc(CN)c2)c1 = < 4.00
• CNC(=O)[C@H](Nc1ccc2c(c1)CNC2)c1cc(Cl)cc2c1OCC2 = 6.59
• Cc1[nH]c2ccc(Br)cc2c1CC(=O)Nc1cccc(CN)c1 = < 4.00
• O=C(Nc1ccc2c(c1)CNC2)c1cc(F)cc(-c2ccncc2)c1 = 6.67
• O=C(Nc1cc(Cl)cc(C(=O)Nc2ccc3c(c2)OCCNC3)c1)OCc1ccccc1 = 4.82

For every item below, please supply its pIC50.
1. CN1CCC[C@H](c2nc3c(C(=O)Nc4ccc5c(c4)CNC5)cc(F)cc3[nH]2)C1=O
2. CCC1(NC(=O)Cn2ccnc(N3CC[C@@H](CO)C3)c2=O)CC1
3. CC(C)S(=O)(=O)N1CCC([C@@H](NC(=O)OCc2ccccc2)C(=O)Nc2cccc(CN)c2)CC1

Result ::
1: 6.79; 2: < 4.00; 3: < 4.00

For every item below, please supply its pIC50.
1. N#C[C@H](Nc1ccc2c(c1)CNC2)c1cc(Cl)cc2c1OCC2
2. N[C@H]1CCc2ccc(NC(=O)c3cc(Cl)cc(NC(=O)OCc4ccccc4)c3)cc21
3. NCc1cccc(NC(=O)[C@H]2COC3(CCOCC3)N2C(=O)OCc2ccccc2)c1
4. NCc1cccc(NC(=O)[C@@H](NC(=O)OCc2ccccc2)c2ccc(Cl)cc2)c1
5. Cc1nc(-c2ccc([C@@H](NC(=O)OCc3ccccc3)C(=O)Nc3cccc(CN)c3)cc2)cs1
6. COc1c(Cl)cc(Cl)cc1C(=O)Nc1cccc(CN)c1

Result ::
[5.61, 5.07, "< 4.00", "< 4.00", "< 4.00", 4.86]

* * *

Can you tell me IC50 for the items I'm about to list?
Biological target: Nonstructural protein 3 (Zika virus, UniProt A0A024AXB9)
Sequence (A0A024AXB9 whole entry): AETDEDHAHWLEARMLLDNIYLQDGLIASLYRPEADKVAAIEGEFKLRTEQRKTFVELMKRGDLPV
Assay: Functional biochemical assay to identify treatments for viral infectious disease that targets Zika NS2B-NS3 protease. Utilizing a direct enzyme activity measurement method, reading the fluorescence intensity is used to characterize the relative potency of inhibitors as IC50.
Set-up: species or system PRVABC59

Some compounds with known IC50 results, for comparison:
* CC(=O)Nc1cccc(C(=O)Nc2ccc3c(c2)CNC3)n1 | > 25 µM
* CCc1sc(C(=O)Nc2cccc(-c3nnn[nH]3)c2)cc1C | > 99.5 µM
* NCc1cccc(NC(=O)[C@H]2CC(=O)Nc3ccc(Br)cc32)c1 | > 99.5 µM

For every item below, please supply its IC50.
1. CCOCC1(c2nc3c(C(=O)Nc4ccc5c(c4)CNC5)cc(Cl)cc3[nH]2)CC1
2. N#Cc1cc(Cl)cc(S(=O)(=O)Nc2cccc(-c3nnn[nH]3)c2)c1
3. Cc1nccn1CCOc1cccc([C@H](NC(=O)OCc2ccccc2)C(=O)Nc2cccc(CN)c2)c1

Result ::
0.199 µM
> 99.5 µM
> 99.5 µM

For every item below, please supply its IC50.
1. COCCNC(=O)[C@H](Nc1cccc([C@H]2CCOC2)c1)c1cc(F)cc2[nH]ccc12
2. O=C(Nc1cc(Cl)cc(C(=O)Nc2nc([C@H]3CCCN3)cc(=O)[nH]2)c1)OCc1ccccc1
3. COC(=O)C(C)(C)NC(=O)[C@H](Nc1ccc2c(c1)CNC2)c1cc(Cl)cc(C2CC2)c1

Result ::
["> 25 µM", "92 µM", "8.99 µM"]
